So I've got a bunch of molecules here, and I need their composite z-score values.
# TARGET_DESC: Fibroblast growth factor 2 (Homo sapiens) (UniProt P09038)
# Sequence (P09038 whole entry, looked up): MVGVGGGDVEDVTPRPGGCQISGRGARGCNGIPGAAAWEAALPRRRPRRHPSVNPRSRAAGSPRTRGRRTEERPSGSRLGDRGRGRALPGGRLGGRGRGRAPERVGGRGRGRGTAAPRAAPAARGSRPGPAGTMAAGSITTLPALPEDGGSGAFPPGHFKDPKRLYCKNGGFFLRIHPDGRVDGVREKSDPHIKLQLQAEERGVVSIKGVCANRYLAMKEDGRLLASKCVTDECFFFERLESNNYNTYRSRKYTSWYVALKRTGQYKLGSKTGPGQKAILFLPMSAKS
# PROTOCOL: FGF2 binders on small-molecule microarrays, primary screen, biochemical, small-molecule microarray, 635/667 nm fluorescence (AID 1133)
# CONDITION_SUMMARY: small-molecule microarray binding, FGF2, fluorescence 635/667; higher = more signal
One number for each entry.

Examples from the recorded data:
MOLECULE	composite z-score
O=C1C2C=CC(C(O)C#Cc3ccccc3)N(Nc3ccccc3)C2C(=O)N1c1ccccc1 (stereo not drawn)	-0.0859
O=C(NCc1ccccc1)[C@@]1(CCS(=O)(=O)c2ccccc2)COC(c2ccc(OCCCO)cc2)=N1	-0.376
COc1ccc([Si](C)(C)[C@@H]2[C@@H](CCO)O[C@]3(C(=O)N(Cc4ccc(NC(=O)[C@H](C)O)cc4)c4ccccc43)[C@H]2C)cc1	0.137
C=CCNC(=O)[C@H]1[C@@H]2C(=O)O[C@@H](c3ccccc3)[C@@H](c3ccccc3)N2[C@@H](c2ccccc2OCCO)[C@]12C(=O)N(C(=O)OCCOC)c1ccc(C#CCC(C(=O)OC)C(=O)OC)cc12	1.06
CC[C@H]1C2=C3C(CC[C@H]4C(OC)OC[C@](C)([C@@H]34)N(C(=O)OC(C)(C)C)C2)C(CO)C1CO (stereo partly drawn)	-0.468
C[C@@H]1NC(=O)CC=C[C@@H](C)[C@@H]2C=C[C@H](O)[C@@H](COC(=O)[C@H](C)NC(=O)CC=C[C@@H](C)[C@@H]3C=C[C@H](O)[C@@H](COC1=O)O3)O2	0.859
NC(=O)[C@H]1[C@@H]2C(=O)O[C@@H](c3ccccc3)[C@@H](c3ccccc3)N2[C@@H](c2ccc(O)cc2)[C@]12C(=O)Nc1ccc(C#CCCO)cc12	-0.581
COc1cc(Cc2cc3c(c(CCc4ccccc4)n2)[Si](C(C)C)(C(C)C)OC3)cc(OC)c1OC	0.263

Parameters: items (list). Returns: composite z-score for each item.
1. COc1ccc([Si](C)(C)[C@H]2[C@H](CC(=O)N3Cc4ccccc4C[C@H]3CO)O[C@@]3(C(=O)N(Cc4cccc(N5CCOC5=O)c4)c4ccccc43)[C@@H]2C)cc1
2. COCCOC(=O)N1C(=O)[C@@]2(c3cc(C#CCC(C(=O)OC)C(=O)OC)ccc31)[C@H](C(=O)N1CCN(c3ncccn3)CC1)[C@H]1C(=O)O[C@H](c3ccccc3)[C@H](c3ccccc3)N1[C@@H]2c1ccc(O)cc1
3. CC(C)(C)OC(=O)CC[C@@]1(C(=O)NCc2ccccc2)N=C(c2ccc(OCCCO)cc2)O[C@@H]1c1ccccc1
4. COCCOC(=O)N1C(=O)[C@@]2(c3cc(C#CC4=CCCCC4)ccc31)[C@H](C(=O)NC[C@H](O)c1ccccc1)[C@H]1C(=O)O[C@H](c3ccccc3)[C@H](c3ccccc3)N1[C@@H]2c1ccccc1OCCO
5. C=CCc1cccc([C@H]2N[C@H](C(=O)O)CC[C@@H]2C)c1

Result:
[1.32, 0.393, 0.244, 0.825, 0.972]

###

# Tested on: Chordin-like protein 2 (CHRDL2)
# PROTOCOL: CHRDL2 small-molecule binders, primary screen, biochemical, small-molecule microarray, 635 nm fluorescence (AID 1126);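 further: printed compound slides probed with Chrdl2 protein at 4 µg/mL for 1 h at 4 C; score merges 667 nm emission intensity with signal to noise over three replicate slides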
# CONDITION_SUMMARY: small-molecule microarray binding, fluorescence 635 nm; higher = more signal
ASSAY_ENDPOINT: composite z-score

Examples from the recorded data:
COMPOUND	OBS_VALUE
COc1ccc([Si](C)(C)[C@H]2[C@H](CC(=O)N(CCO)Cc3ccccc3)O[C@@]3(C(=O)N(C)c4ccccc43)[C@@H]2C)cc1	1.21
C=C(CCCC)C(=O)CC[C@@H](OC(C)=O)c1ccccc1OCCO	-0.646
N#Cc1ccc(NN2C(C(O)c3ccc(I)cc3)C=CC3C(=O)N(c4ccccc4)C(=O)C32)cc1 (configuration not stated)	-0.389
O=C/C=C/c1ccc(/C=C/c2ccccc2)cc1	0.95
C[C@H]1NC(=O)[C@@H](C)NC(=O)[C@@]23C(=O)N[C@@H](Cc4ccccc4)C2[C@H](C)[C@@]2(C)O[C@H]2C3/C=C/C/C=C\CNC1=O (some centres not stated)	0.274
CC[C@H]1C2=C3C(CC[C@H]4C(OC)OC[C@](C)([C@@H]34)N(C(=O)OC(C)(C)C)C2)C(CO)C1CO (some centres not stated)	-0.656

Below: the item to evaluate.
Q: Please report the recorded composite z-score for COCC(=C=CC[C@H](O)c1ccc(OCCO)cc1)C[C@H](O)c1ccccn1 .
Result: -0.6

###

# PROTOCOL: binders of probe aFST on microarray, primary screen, stem cell growth factor project, biochemical, small-molecule microarray, fluorescence 635/667 (AID 1086);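 further: score merges 667 nm fluorescence with signal-to-noise of each printed compound spot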
# CONDITION_SUMMARY: higher = more signal
ASSAY_ENDPOINT: composite z-score
One number for each entry.

Examples from the recorded data:
MOLECULE	composite z-score
O=C1c2ccccc2[C@@]2(Cc3ccccc3N(CC(F)(F)F)C2=O)[C@H](c2ccc(CO)cc2)N1C1CCCCC1	-0.415
COC(=O)[C@@]1(Cc2ccccc2CN=[N+]=[N-])N=C(c2ccc(OCCCO)cc2)O[C@H]1c1ccccc1N=[N+]=[N-]	0.19
C/C(=N\O)C(=O)NCCCCCNC(=O)OCc1ccccc1	0.271
COCCOC(=O)N1C(=O)[C@@]2(c3cc(C#CCC(C(=O)OC)C(=O)OC)ccc31)[C@H](C(=O)N1CCN(c3ncccn3)CC1)[C@H]1C(=O)O[C@H](c3ccccc3)[C@H](c3ccccc3)N1[C@@H]2c1ccc(O)cc1	-0.304
CC(C)N1CC=CC23O[C@@H]4/C=C\CCCOC(=O)C4[C@H]2C(=O)N(CCO)[C@@H]3C1=O (stereo partly specified)	-0.219

Below: the item to evaluate.
Q: Please report the recorded composite z-score for C[C@H]1NC(=O)[C@@H](C)NC(=O)[C@@]23C(=O)N[C@@H](Cc4ccccc4)C2[C@H](C)[C@@]2(C)O[C@H]2C3/C=C/C/C=C\CNC1=O (stereo partly specified) .
Result: -0.41

###

# PROTOCOL: E. coli DRC41 culture turbidity changes, primary screen, E. coli filamentation inducer project, strain DRC41, OD650, 48 h (AID 1152);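 further: E. coli MC1000 strain DRC41 lacking acrAB efflux pump and sulA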
# CONDITION_SUMMARY: E. coli DRC41 (acrAB sulA), higher = more signal, called active from +8 up or from −8 down
Label YES for high-side z-score (at or above 1) and NO for low-side z-score (below it).

Please review the following examples before continuing.
MOLECULE	DISCRETE_LABEL
COC(=O)C1=CC(c2ccc(CO)cc2)=CC(C2CC2)N(Cc2sc3ccccc3c2Cl)C=C1C(=O)OC (stereo unspecified)	NO
O=C(N1CCCCC1)[C@@]1(CCS(=O)(=O)c2ccccc2)N=C(c2ccc(OCCCO)cc2)O[C@H]1c1ccccc1	NO
CO[C@H]1COC(=O)[C@@H](OCc2ccccc2)C=C[C@H](C)[C@@H](OC)COC(=O)[C@H](OCc2ccccc2)C=C[C@@H]1C	NO
CO[C@H]1COC(=O)CC=C[C@H](C)[C@@H](OC)COC(=O)CC=C[C@@H]1C	YES

Q: Can COC(=O)c1c(CC[C@@H](CO)NC(=O)N[C@H](Cn2cc(-c3cncn3C)nn2)C(C)C)oc(C(C)=O)c1C(=O)OC be said to have z-score at or above 1?
Result: YES

Q: Can COC(=O)C1=CC(c2ccc(CO)cc2)=CC(c2cccs2)N(Cc2cccc(OC(F)(F)F)c2)C=C1C(=O)OC (stereo unspecified) be said to have z-score at or above 1?
Result: NO

###

So I've got a bunch of molecules here, and I need their composite z-score values.
# TARGET_DESC: Torsin-1A (Homo sapiens) (UniProt O14656)
# Sequence (O14656 whole entry, looked up): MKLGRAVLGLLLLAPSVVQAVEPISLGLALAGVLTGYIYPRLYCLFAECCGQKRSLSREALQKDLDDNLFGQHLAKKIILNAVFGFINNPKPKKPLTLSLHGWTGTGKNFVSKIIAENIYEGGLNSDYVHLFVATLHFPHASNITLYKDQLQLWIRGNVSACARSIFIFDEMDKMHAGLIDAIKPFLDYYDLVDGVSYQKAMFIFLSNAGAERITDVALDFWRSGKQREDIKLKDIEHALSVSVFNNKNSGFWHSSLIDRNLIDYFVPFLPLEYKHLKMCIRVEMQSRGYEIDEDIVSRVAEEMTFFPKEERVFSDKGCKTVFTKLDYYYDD
# PROTOCOL: small-molecule binders of mutant TOR1A in lysate, primary screen, cell lysate, small-molecule microarray, COS7 lysate, 635/667 nm fluorescence (AID 1150);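 further: score pools 667 nm emission and signal to noise measuring lysate protein binding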
# CONDITION_SUMMARY: COS7 hTOR1A mutant lysate, 635 nm fluorescence, higher = more signal

Examples from the recorded data:
GIVEN_SMILES	ASSAY_ENDPOINT	OBS_VALUE
CCOC(=O)C1=CC[C@@H](c2ccc(-c3ccc(OCc4ccccc4)cc3)c(OC)c2)N(S(=O)(=O)c2ccc(C)cc2)[C@H]1c1ccccc1	composite z-score	0.518
COC(=O)C[C@H]1O[C@]2(C(=O)N(Cc3ccccc3)c3ccc(I)cc32)[C@@H](C)[C@@H]1[Si](C)(C)c1ccc(OC)cc1	composite z-score	-0.0957

Below: the item to evaluate.
Q: Please report the recorded composite z-score for COCCCNC(=O)[C@@]1(c2ccc([N+](=O)[O-])cc2)CC(=O)N(C2CCCCC2)[C@@H]1c1ccc(CO)cc1 .
Result: -0.699

###

# PROTOCOL: inhibitors of hydroxyurea-induced Chk1 phosphorylation, primary screen, imaging, HeLa, phospho-Chk1 antibody, percent positive cells (AID 1186)
# CONDITION_SUMMARY: hydroxyurea-induced phospho-Chk1 immunofluorescence imaging, higher = more signal
Label t for high-side z-score (at or above -0.4) and f for low-side z-score (below it).

Please review the following examples before continuing.
MOLECULE	DISCRETE_LABEL
CC(C)N1CC=CC23O[C@@H]4/C=C\CCCOC(=O)C4[C@H]2C(=O)N(CCCCCO)[C@@H]3C1=O (some centres undefined)	t
CC(C)[Si](OCCCNS(=O)(=O)c1ccc(Br)cc1)(C(C)C)C(C)C	f
CCCC=C(CCC)[C@@H](NC(=O)c1ccc(C(F)(F)F)cc1)c1ccccc1	t
CCC1=C2CN(Cc3ccccc3Br)[C@@H]([C@@H](O)Cc3ccccc3)C2C=CCC1 (some centres undefined)	t
O=C1O[C@H](c2ccccc2)[C@H](c2ccccc2)N2[C@H]1[C@@H](C(=O)Nc1nc3ccccc3s1)[C@]1(C(=O)Nc3ccc(C#CC4=CCCCC4)cc31)[C@H]2c1ccccc1OCCO	t
CN1CCC(CCCO)=CC1C1CC1 (centres undefined)	f
O=C(CS)NCCCCCNC(=O)[C@H]1C[C@H]2C(=O)N[C@@H](Cc3ccccc3)C(=O)N2[C@H]1c1ccc(O)cc1	t
Cc1ccc(N2C(=O)c3ccccc3[C@](C)(C(=O)NCC(C)C)[C@@H]2c2ccc(CO)cc2)nc1	t
C=CC[C@@]1(C(=O)NCC(O)CO)N=C(c2ccc(OCCCO)cc2)O[C@@H]1c1ccccc1CN=[N+]=[N-] (some centres undefined)	f
CCCC=C(CCC)[C@@H](NS(=O)(=O)c1ccc(-c2ccccc2)cc1)c1ccc(C(=O)OC)cc1	t

Q: Can Cc1ccc(S[C@]2(C(=O)NC(C)C)CC(=O)N(C3Cc4ccccc4C3)[C@@H]2c2ccc(CO)cc2)cc1 be said to have z-score at or above -0.4?
Result: t

Q: Can CCOC(=O)C1=CCC(c2cccc3ccccc23)N(S(=O)(=O)c2ccc(C)cc2)C1 (centres undefined) be said to have z-score at or above -0.4?
Result: t

Q: Can COC(=O)[C@@]1(Cc2ccc(OC)cc2)[C@H]2c3cc(C(=O)N(C)C)n(CCc4ccc(OC)c(Br)c4)c3C[C@H]2CN1C(=O)c1ccccc1 be said to have z-score at or above -0.4?
Result: t

Q: Can N#Cc1ccc(NN2C(C(O)CCc3ccccc3)C=CC3C(=O)N(c4ccccc4)C(=O)C32)cc1 (centres undefined) be said to have z-score at or above -0.4?
Result: t

Q: Can COC(=O)Cn1c(C(=O)N2CCCC2)cc2c1C[C@H]1CN(C(=O)c3ccccc3)[C@@](Cc3ccccc3)(C(=O)OC)[C@@H]21 be said to have z-score at or above -0.4?
Result: f

Q: Can COc1ccc([Si](C)(C)[C@H]2[C@H](CCO)O[C@@]3(C(=O)N(Cc4ccccc4)c4ccc(N5C(=O)c6cccc7cccc5c67)cc43)[C@@H]2C)cc1 be said to have z-score at or above -0.4?
Result: f

Q: Can CCCNC(=O)[C@@H]1c2ccccc2C(=O)N(Cc2cc(F)cc(C(F)(F)F)c2)[C@H]1c1ccc(CO)cc1 be said to have z-score at or above -0.4?
Result: f

Q: Can CCOC(=O)C[C@H]1[C@H](OC(=O)c2ccccc2-c2ccccc2)[C@@H](NC(=O)c2ccc(-c3ccccc3)cc2)c2cc(OCCCO)ccc2N1C(=O)Cc1ccc(OC)cc1 be said to have z-score at or above -0.4?
Result: t

Q: Can C=C(CCCC)/C(=C/C[C@@H](OC(=O)c1ccncc1)c1ccc(CO)o1)c1cnc2ccccc2c1 be said to have z-score at or above -0.4?
Result: t
